assay: Stability of the analytes in human plasma at QC levels; type: in vitro ADME; settings: low QC; autosampler r.t., 24 h; n = 5
Each entry below carries its reported The autosampler Dev. (24h, %).
Recorded endpoint: The autosampler Dev. (24h, %)

{"Compound": "CCC(=O)O[C@]1(C(=O)CO)[C@@H](C)C[C@H]2[C@@H]3CCC4=CC(=O)C=C[C@]4(C)[C@@]3(F)[C@@H](O)C[C@@]21C [B17P, betamethasone 17-monopropionate]", "Recorded endpoint": "The autosampler Dev. (24h, %)", "Measurement units": "%", "Assay result": 5.68}
{"Compound": "CCC(=O)OCC(=O)[C@@]1(OC(=O)CC)[C@@H](C)C[C@H]2[C@@H]3CCC4=CC(=O)C=C[C@]4(C)[C@@]3(F)[C@@H](O)C[C@@]21C [BDP, betamethasone dipropionate]", "Recorded endpoint": "The autosampler Dev. (24h, %)", "Measurement units": "%", "Assay result": "−11.2"}
{"Compound": "CCC(=O)OCC(=O)[C@@]1(O)[C@@H](C)C[C@H]2[C@@H]3CCC4=CC(=O)C=C[C@]4(C)[C@@]3(F)[C@@H](O)C[C@@]21C [B21P, betamethasone 21-monopropionate]", "Recorded endpoint": "The autosampler Dev. (24h, %)", "Measurement units": "%", "Assay result": 7.92}
{"Compound": "C[C@H]1C[C@H]2[C@@H]3CCC4=CC(=O)C=C[C@]4(C)[C@@]3(F)[C@@H](O)C[C@]2(C)[C@@]1(O)C(=O)COP(=O)([O-])[O-].[Na+].[Na+] [BSP, betamethasone sodium phosphate]", "Recorded endpoint": "The autosampler Dev. (24h, %)", "Measurement units": "%", "Assay result": 4.03}
{"Compound": "C[C@H]1C[C@H]2[C@@H]3CCC4=CC(=O)C=C[C@]4(C)[C@@]3(F)[C@@H](O)C[C@]2(C)[C@@]1(O)C(=O)CO [BOH, betamethasone]", "Recorded endpoint": "The autosampler Dev. (24h, %)", "Measurement units": "%", "Assay result": 5.04}
